Provenance of the data: the DeepSol protein solubility set

assay: soluble on expression in E. coli; label from the status in PepcDB or PDB records
Measured endpoint: soluble on expression in E. coli

| Residues | Result value |
| --- | --- |
| MHHHHHHGSTSLYKKAGSETLYIQGMAEFPASLLILNGKSTDNLPLREAIMLLREEGMTIHVRVTWEKGDAARYVEEARKFGVATVIAGGGDGTINEVSTALIQCEGDDIPALGILPLGTANDFATSVGIPEALDKALKLAIAGDAIAIDMAQVNKQTCFINMATGGFGTRITTETPEKLKAALGSVSYIIHGLMRMDTLQPDRCEIRGENFHWQGDALVIGIGNGRQAGGGQQLCPNALINDGLLQLRIFTGDEILPALVSTLKSDEDNPNIIEGASSWFDIQAPHDITFNLDGEPLSGQNFHIEILPAALRCRLPPDCPLLRSTHHHHHH | soluble |
| SAMKPTAGPTTNADLTSAPPHDIFISHAWEDKADFVEALAHTLRAAGAEVWYDDFSLRPGDSLRRSIDKGLGSSRFGIVVLSTHFFKKEWPQKELDGLFQLESSGRSRILPIWHKVSKDEVASFSPTMADKLAFNTSTKSVDEIVADLMAIIRD | soluble |
| MTGRTGGNGSTQAQPERVMLVGVMLDKDGTGSSAARLNGFQTALAEAVELVKAAGGDSVRVETAKRDRPHTALFVGTGKAAELSEAVAADGIDLVVFNHELTPTQERNLEKELKCRVLDRVGLILAIFARRARTQEGRLQVELAQLSHLAGRLIRGYGHLQSQRGGIGMKGPGETKLETDRRLIAHRINALKKQLANLKKQRALRRKSRESGTIKTFALVGYTNVGKSSLFNRLTKSGIYAKDQLFATLDTTARRLYISPECSIILTDTVGFVSDLPHKLISAFSATLEETAQADVLLHVVDAAAPNSGQQIEDVENVLQEIHAGDIPCIKVYNKTDLLPSEEQNTGIWRDAAGKIAAVRISVAENTGIDALREAIAESCAAAPNTDETEMPLEHHHHHH | soluble |
| MHEITLCQRALELIEQQAAKHGAKRVTGVWLKIGAFSCVETSSLAFCFDLVCRGSVAEGCKLHLEEQEAECWCETCQQYVTLLTQRVRRCPQCHGDMLQIVADDGLQIRRIEIDQE | soluble |
| MMPTEYPATAEESVDVITDALLTASRLLVAISAHSIAQVDENITIPQFRTLVILSNHGPINLATLATLLGVQPSATGRMVDRLVGAELIDRLPHPTSRRELLAALTKRGRDVVRQVTEHRRTEIARIVEQMAPAERHGLVRALTAFTEAGGEPDARYEIE | soluble |

Give measured soluble on expression in E. coli for every item shown.
1. MAEPKYAIIINDIKRLISDGTFKPGEKIYSEDELKKKYNVSNTTVVRALHELVRAGILARYQGKGTYVSKSIINEEVIFNEYTTVPNGKFNRKTKIANEHTKVVAINEIQDARIAKNLQIPPENMIVHFQRIRLIDDVPWTVQNNYMAKANLINVDLTNFERFNSLSEVIKELYGINILHEAMKERIQVEFPVKDKNNFKLLEIDSELPLYHIERITYVPEGQPYEYIESYLRHNFYSIEIEKKKQ
2. MGSDKIHHHHHHMKIKHIFTDMDGTLLDSHGSVSDTNHWSIYYSDLPITLVSARSPLEMSNIVEKLQLRTPQIAFNGNLTFTQNQFGLQIIDKNPLASETVSQLLNYISTEFPNVSLNWYSLAHWYINKQDKGTFIQKAITGIEPKIKTFDGQSEIYKIMMIVFDSQELLQLQAQLNNLNIPNISVQQSGQWYLEITSDNKTKADAVQSILDNKNLDFQEIAAIGDGHNDIPLLQSAGLAIAVDNANSEVKKHVKMVVAKNTEHGVAEAISAINTINEQVI
3. MCMDEIKKWKNVKAKKITETLNKRHFKASYVETLEEAKEKLISMIEEGSSVAIGGSTTLSQMGMVDVLRNGNYKFFDRYQNLPFDPDIVEIHRKSLTADYLITGTNAITENGELVNTDCTGNRVAPMIFGPKNVIIVAGINKIVENIDAALKRIREIAPMNSKRIKHETPCVETGFCVDCDCKKRICNFTTIIHNGIKFEGRIKIIIIADELGYLEHHHHHH
4. MPSRKFADGEVVRGRWPGSSLYYEVEILSHDSTSQLYTVKYKDGTELELKENDIK
5. MIRSSKRSLSRDLVRFVQYVDDCVVKRYGFVVKSGSGIKLNGKKPQGFGTSSEDEDNNADMSDDSEEVPVSSIDKRKVASSKSRTGVVIEGDVVKPPVMKFVVLDKNRNVCQVYGNRHDLTSSAEDDSVDGDEETLVMSRDNGRKQSLKARNGVSVKGGGGKTTRVVKTVSFDENGNVCKVYGDTHDLTSSAEDDDSVDVGEETLVMCRDEGKRRSSKTGSRVLVKGSGGKTNRVVKTVSFDENGNVYKAYGDTPESSIISEEDDSTSGSNEGNGEEKGNVNEVEEIKYVPKENESFEEEEEKETDSENEVSSSEGSEGDKRVTKKEVQHQKGSLMFSPPLPLKMEP
6. MPLSYYEKGIMYKRKNFMGPAVKCFEEARKLEEKVGSKASLELAKIYAYFKDYEEAYKYCKEAISKSNYIEAYYLMVRILLLSNTPINEILKKAGKVKIHNSLLADIFCFEGNYEVALKIIDTCLKEDEVTRDLELIKIKCLLKLKQYDKCKDYIDNFSQSYLYFFKIRMYKVICCVLLEEYRLAWKIIDEFDYKKLSLYNKNKLKAYINFYNAALDIRGITPHENDEEYYSCIFEIIDILLATKEIKCLKKLIQTISKYDGGYLELAELYSNYGYVSEAKKLIVLYIKKFEVVNNKMIYILQKLEHHHHHH
7. MATAVVQRKGYDNVELSLSEDDDPVKEKKKSKGNEKKSSTESKSKESKETSKEEDLAQKKFLMTQKTQSMTEDEKEVKPKAPESQKPKKNSAEESNEKIKKEGSVKVETVASKVKPASSRVPPIASTPGKGSVDGEQKKKSTGCCIIL

1. not soluble
2. not soluble
3. not soluble
4. soluble
5. soluble
6. not soluble
7. soluble
